molecular target: T1, Aβ1-42 polypeptide (human); experiment: SPR, Biacore T200, antibody captured on Protein A chip, human Aβ antigen as analyte
T1 construct: Synthetic peptide; also called Aβ1-42 monomer; Aβ monomer
T1 sequence (peptide, as listed by the source): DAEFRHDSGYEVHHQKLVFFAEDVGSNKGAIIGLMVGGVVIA
Each item that follows carries a reported pKd.
// pKd is dimensionless: -log10 of concentration (M)

Worked cases, answers included:
[in] Given the binder 066-4.26.14H5L3 (antibody, human IgG1, V domains shown, Humanized full-length antibody; human IgG1 heavy constant and human kappa light constant (vectors pGS003-hIgG1CH, pGS003-hIgKCL)) VH: EVQLVESGGGLVQPGGSLRLSCVASGFTFRSYAMSWVRQAPGKGLEWVASISTTSNTYYPDSVKGRFTTSRDNSKNTVYLQMSSLRAEDTAVYYCGRGVITNQAWFAYWGQGTLVTVSS VL: DIVLTQSPDFQSVTPKEKVTISCRASQSISNNLHWYQQKPDQSPKLLIKYASQSISGIPSRFSGSGSGTDFTLTINSLEAEDAAAYFCQQSNSWPLTFGPGTKVEIKR , what is its reported pKd?
[out] 7.49

[in] Given the binder 066-4.26.14H4L2 (antibody, human IgG1, V domains shown, Humanized full-length antibody; human IgG1 heavy constant and human kappa light constant (vectors pGS003-hIgG1CH, pGS003-hIgKCL)) VH: EVQLVESGGGLVQPGGSLRLSCAASGFTFRSYAMSWVRQAPGKGLEWVASISTTSNTYYPDSVKGRFTTSRDNAKNSVYLQMSSLRDEDTAMYYCGRGVITNQAWFAYWGQGILVTVSS VL: DIVLTQSPATLSVSPGERATLSCRASQSISNNLHWYQQKPGQAPRLLIKYASQSISGIPARFSGSGSGTDFTLTISSLQSEDFAVYFCQQSNSWPLTFGGGTKVEIKR , what is its reported pKd?
[out] 7.44

Now for another entry.
[in] Given the binder 066-4.26.14H2L3 (antibody, human IgG1, V domains shown, Humanized full-length antibody; human IgG1 heavy constant and human kappa light constant (vectors pGS003-hIgG1CH, pGS003-hIgKCL)) VH: EVQLVESGGGLVKPGGSLRLSCAASGFTFRSYAMSWVRQTPEKRLEWVASISTTSNTYYPDSVKGRFTTSRDNAKNSVYLQMSSLRAEDTAVYYCGRGVITNQAWFAYWGQGTTVTVSS VL: DIVLTQSPDFQSVTPKEKVTISCRASQSISNNLHWYQQKPDQSPKLLIKYASQSISGIPSRFSGSGSGTDFTLTINSLEAEDAAAYFCQQSNSWPLTFGPGTKVEIKR , what is its reported pKd?
[out] 7.59
